target: b-Raf(V600E) (Homo sapiens (Human), UniProt P15056, V600E); assay: Raf/Mek Amplified Luminescence Proximity Homogeneous Assay (Alpha Screen); conditions: b-Raf(V600E) approximately 4 pM; biotinylated Mek, kinase dead approximately 10 nM; ATP 10 μM; pre-incubation 60 minutes; reaction 3 hours at room temperature; read-out: mut-B-RAF IC50
Sequence (P15056 whole entry V600E): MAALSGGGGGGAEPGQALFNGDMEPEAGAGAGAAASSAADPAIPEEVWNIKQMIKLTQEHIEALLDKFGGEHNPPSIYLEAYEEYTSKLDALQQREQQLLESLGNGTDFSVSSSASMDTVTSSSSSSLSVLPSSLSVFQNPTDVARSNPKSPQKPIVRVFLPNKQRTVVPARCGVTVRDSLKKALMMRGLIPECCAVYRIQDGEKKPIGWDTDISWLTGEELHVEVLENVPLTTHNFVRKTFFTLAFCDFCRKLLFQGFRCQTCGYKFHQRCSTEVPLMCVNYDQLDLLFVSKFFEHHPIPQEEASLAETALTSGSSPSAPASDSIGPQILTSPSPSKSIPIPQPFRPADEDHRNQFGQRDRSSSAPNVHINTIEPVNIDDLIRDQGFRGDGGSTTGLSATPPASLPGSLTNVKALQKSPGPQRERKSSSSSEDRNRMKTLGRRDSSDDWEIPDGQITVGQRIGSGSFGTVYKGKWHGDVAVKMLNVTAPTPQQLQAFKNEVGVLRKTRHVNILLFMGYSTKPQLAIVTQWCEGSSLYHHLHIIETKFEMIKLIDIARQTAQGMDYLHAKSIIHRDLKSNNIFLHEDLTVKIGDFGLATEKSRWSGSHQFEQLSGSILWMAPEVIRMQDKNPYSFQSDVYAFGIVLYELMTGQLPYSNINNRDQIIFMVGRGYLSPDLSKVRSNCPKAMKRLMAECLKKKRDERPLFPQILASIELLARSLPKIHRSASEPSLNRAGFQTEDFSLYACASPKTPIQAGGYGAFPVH
pIC50: −log10 of the molar value.
Observation type: pIC50

COC(=O)N[C@@H](C)CNc1nccc(-c2[nH]c(C3CCC3)nc2-c2cc(F)cc(NS(C)(=O)=O)c2Cl)n1 [Example 1BU] :: 9.00
COC(=O)N[C@@H](C)CNc1nccc(-c2[nH]c(C(C)(C)C)nc2-c2cc(F)cc(NS(C)(=O)=O)c2Cl)n1 [Example 1AG] :: 9.00
COC(=O)N[C@@H](C)CNc1nccc(-c2nc(C3(C)CC3)[nH]c2-c2cc(C)cc(NS(C)(=O)=O)c2F)n1 [Example 1AM] :: 9.00
COC(=O)N[C@@H](C)CNc1nccc(-c2nc(C3CC3)[nH]c2-c2cc(Cl)cc(NS(=O)(=O)c3ccc(F)cc3)c2F)n1 [Example 1AW] :: 9.00
CCCS(=O)(=O)Nc1cccc(-c2nc(C3CC3)[nH]c2-c2ccnc(NC[C@H](C)NC(=O)OC)n2)c1 [Example 4J] :: 9.00
O=S(=O)(Nc1cc(F)cc(-c2nc(C3CC3)[nH]c2-c2ccncn2)c1Cl)c1c(F)cccc1F [Example 2I] :: 9.00
Nc1nccc(-c2[nH]c(C3CC3)nc2-c2cccc(NS(=O)(=O)c3c(F)cccc3F)c2Cl)n1 [Example 2H] :: 9.00
CCCS(=O)(=O)Nc1cc(F)cc(-c2nc(C(C)(C)C)[nH]c2-c2ccnc(NC[C@H](C)NC(=O)OC)n2)c1Cl [Example 1AH] :: 9.00
